Recorded values, source PubChem BioAssay (NCI).

Each entry below carries its recorded growth inhibition.
# test name: NCI Yeast Anticancer Drug Screen. Data for the rad50 strain (AID 155);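 further: 0% = growth of vehicle-only cultures of the same strain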
# test parameters: S. cerevisiae rad50 strain growth inhibition; at 50.0 µM (retest, dose inferred, filed as 5.0); hits give high values
About 79,000 compounds went through this panel and 15% of them were active in at least one assay; those are over-represented in the sample as a whole.
observable: growth inhibition (%)

> print(dat)
                                   compound         observable  value
1  CC1=C(C#N)C(=O)OC1(C)C(CC(=O)c1ccccc1)c1ccccc1 (stereo not given)  growth inhibition      3
2  CC1=C(C(=O)OCCO[N+](=O)[O-])C(c2cccc([N+](=O)[O-])c2)C(C(=O)OC(C)C)=C(C)N1 (stereo not given)  growth inhibition     91
3   c1csc(-c2nnc(C34CC5CC(CC(C5)C3)C4)o2)c1  growth inhibition     93
4  C=COCCN1CCN(CCCN2c3ccccc3Sc3ccc(C(F)(F)F)cc32)CC1  growth inhibition     99
5  C/C(C=C(C#N)C#N)=C\c1ccc([N+](=O)[O-])cc1  growth inhibition     67
